Tested on: Fibroblast
Test: Multiplex assay against human fibroblast
Type: toxicity, cell-based
Details: 24 h, 10 µM, compound concentration 10 uM, replicate 2
ENDPOINT: Population Tubulin-Different-Phenotype (%)
Response body: numeric value in %, unit text excluded.

input: Using the record for CC(C)(C)c1cc(NC(=O)Nc2ccc(-c3cn4c(n3)sc3cc(OCCN5CCOCC5)ccc34)cc2)no1 , report its Population Tubulin-Different-Phenotype (%).
output: 70

input: Repeat for the following compound: C[C@H](N)COC(=O)[C@@H](CCCCN)NC(=O)Cc1c(-c2ccc3ccccc3c2)[nH]c2c1ccc1ccccc12
output: 54

input: Repeat for the following compound: CCc1cc2cc(NS(=O)(=O)c3ccc(C#N)cc3)ccc2n(CC)c1=O
output: 72

input: Repeat for the following compound: Cc1noc(-c2ccc(-c3ccc(CC(=O)O)cc3)cc2)c1NC(=O)O[C@H](C)c1ccccc1Cl
output: 65
